- testedSystem: Proteasome Macropain subunit MB1 (Homo sapiens)
- Sequence (P28074 whole entry): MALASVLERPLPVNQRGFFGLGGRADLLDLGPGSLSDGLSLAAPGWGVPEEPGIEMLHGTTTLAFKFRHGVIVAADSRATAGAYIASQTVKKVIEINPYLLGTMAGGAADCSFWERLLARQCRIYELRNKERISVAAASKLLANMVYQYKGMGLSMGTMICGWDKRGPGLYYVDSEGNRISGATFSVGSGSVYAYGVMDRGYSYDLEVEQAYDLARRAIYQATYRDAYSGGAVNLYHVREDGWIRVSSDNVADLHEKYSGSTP
- methodSummary: Inhibition of 20S proteasome subunit beta-5c (unknown origin) using Ac-WLA-AMC as substrate and measured after 30 mins
quantity: IC50 (nM)

A selection of reference data follows.
Short answer for Cc1ccc(CNC(=O)[C@H](Cc2ccc([N+](=O)[O-])cc2)NC(=O)[C@H](CCC(=O)NC(C)(C)C)NC(=O)CCNC(=O)CCl)cc1 : IC50 was 84.1

Short answer for Cc1ccc(CNC(=O)CNC(=O)[C@H](CCC(=O)NC(C)(C)C)NC(=O)[C@H](CNC(=O)CCl)NC(=O)CN2CCOCC2)cc1 : IC50 was 3850

Short answer for Cc1ccc(CNC(=O)[C@H](Cc2ccccc2)NC(=O)[C@H](CC(=O)NCC2CCCO2)NC(=O)[C@H](CNC(=O)CCl)NC(=O)CN2CCOCC2)cc1 (some centres undefined) : IC50 was 430

1: CC[C@H](NC(=O)[C@H](CCC(=O)NC(C)(C)C)NC(=O)CCNC(=O)CCl)C(=O)NCc1ccc(C)cc1
2: Cc1ccc(CNC(=O)CNC(=O)[C@H](CCC(=O)NC(C)(C)C)NC(=O)CCNC(=O)CCl)cc1
3: Cc1ccc(CNC(=O)[C@H](Cc2ccccc2F)NC(=O)[C@H](CCC(=O)NC(C)(C)C)NC(=O)CCNC(=O)CCl)cc1
4: Cc1ccc(CNC(=O)[C@H](Cc2c[nH]c3ccccc23)NC(=O)[C@H](CCC(=O)NC(C)(C)C)NC(=O)CCNC(=O)CCl)cc1
Query string: Order these by IC50, descending, and give the full ranking. Form entry: ranked labels (order as requested).
Result string: 2, 1, 3, 4

a: Cc1ccc(CNC(=O)[C@H](Cc2ccccc2)NC(=O)[C@H](CCC(=O)N2CCCC2)NC(=O)[C@H](CNC(=O)CCl)NC(=O)CN2CCOCC2)cc1
b: COC[C@H](NC(=O)[C@H](CCC(=O)NC(C)(C)C)NC(=O)CCNC(=O)CCl)C(=O)NCc1ccc(C)cc1
Query string: # compare IC50 for a vs b ; return the one with the smaller value Your choice should be expressed through its label.
Result string: b

###

- methodSummary: Selectivity ratio of IC50 for inhibition of 20S proteasome beta 5c subunit (unknown origin) to IC50 for inhibition of 20S proteasome subunit beta-5i
quantity: Ratio IC50

A selection of reference data follows.
Short answer for Cc1ccc(CNC(=O)[C@H](Cc2ccccc2)NC(=O)[C@H](CCC(=O)NC(C)(C)C)NC(=O)CCNC(=O)CCl)cc1 : Ratio IC50 was 12

Short answer for Cc1[nH]c2ccc(CNC(=O)[C@H](Cc3ccccc3)NC(=O)[C@H](CCC(=O)NC(C)(C)C)NC(=O)CCNC(=O)CCl)cc2c1C : Ratio IC50 was 27

Short answer for CC(C)(C)NC(=O)CC[C@H](NC(=O)CCNC(=O)CC#N)C(=O)N[C@@H](Cc1ccc2ccccc2c1)C(=O)NCc1cccc2ccccc12 : Ratio IC50 was 52

Short answer for Cc1ccc(CNC(=O)[C@H](Cc2ccccc2)NC(=O)[C@H](CCC(=O)NC(C)(C)C)NC(=O)[C@H](CNC(=O)CCl)NC(=O)CN2CCOCC2)cc1 : Ratio IC50 was 14

Short answer for CC[C@H](NC(=O)[C@H](CCC(=O)NC(C)(C)C)NC(=O)CCNC(=O)CCl)C(=O)NCc1ccc(C)cc1 : Ratio IC50 was 3

I: Cc1ccc(CNC(=O)CNC(=O)[C@H](CCC(=O)NC(C)(C)C)NC(=O)CCNC(=O)CCl)cc1
II: CCC(=O)NCCC(=O)N[C@@H](CCC(=O)NC(C)(C)C)C(=O)N[C@@H](Cc1ccccc1)C(=O)NCc1cccc2ccccc12
III: CC(C)(C)NC(=O)CC[C@H](NC(=O)CCNC(=O)CCl)C(=O)N[C@@H](Cc1ccccc1)C(=O)NCc1cccc2ccccc12
IV: Cc1ccc(CNC(=O)[C@H](Cc2ccccc2)NC(=O)[C@H](CC(=O)NCC2CCCO2)NC(=O)[C@H](CNC(=O)CCl)NC(=O)CN2CCOCC2)cc1 (stereo not given in full)
Query string: Order these by Ratio IC50, descending, and give the full ranking. Form entry: ranked labels (order as requested).
Result string: II, III, I, IV
